B1: OR4K15 (parent)
chain: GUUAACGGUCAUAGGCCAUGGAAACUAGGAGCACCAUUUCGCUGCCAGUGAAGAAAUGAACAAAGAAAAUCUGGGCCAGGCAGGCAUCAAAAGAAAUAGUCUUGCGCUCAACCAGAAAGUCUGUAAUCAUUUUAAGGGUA

Variants of: B1
Assay: self-cleavage, relative activity (ratio to wild type); higher = more cleavage; in vitro, sequencing; the parent is a self-cleaving ribozyme
measurement.label: self-cleavage

stdin: Specify reported self-cleavage for the variant shown: A13G U39G
stdout: 1.52

stdin: Fill in reported self-cleavage for this entry: U2C C76U
stdout: 0.23

stdin: Check the records and state self-cleavage for A13G A24G
stdout: 1.05

stdin: Specify reported self-cleavage for the variant shown: A62G A82G
stdout: 0.49

stdin: Specify measured self-cleavage for U26A A91G .
stdout: 1.38

stdin: Dear colleague, please send me the reported self-cleavage for A68G U127A when you can.
stdout: 1.01

stdin: Supply reported self-cleavage belonging to this variant: C25U U120A
stdout: 2.95

stdin: Let me know recorded self-cleavage for U39A A82U , thanks.
stdout: 0.28

stdin: Please list self-cleavage recorded for the variant A51U A63G
stdout: 1.62

stdin: Please report the measured self-cleavage for U19A U127C
stdout: 0.92

stdin: Determine its reported self-cleavage: A68U U132C
stdout: 1.76

stdin: Let me know recorded self-cleavage for A22G C32U , thanks.
stdout: 0.91

stdin: Assign self-cleavage to the following record: C71U A95G
stdout: 0.97

stdin: Quote self-cleavage reported for A51U A78U please.
stdout: 0.36

stdin: Read the entry G29A U131C and write its reported self-cleavage.
stdout: 0.66

stdin: Name the recorded self-cleavage of the variant listed here: C76A A117G
stdout: 0.18

stdin: Provide self-cleavage value for the following variant: A13G U38A
stdout: 0.78

stdin: In one line, give reported self-cleavage of the entry A64G A98G .
stdout: 0.59

stdin: Note down self-cleavage recorded for G73A U122A
stdout: 0.15

stdin: Dear colleague, please send me the reported self-cleavage for U87A A134G when you can.
stdout: 2.21

stdin: Retrieve self-cleavage measured for G75U A126G and print it.
stdout: 0.08

stdin: Tell us which self-cleavage value is on record for U102C C113A
stdout: 0.28

Data credit: the RNAGym collection of RNA variant scans (doi:10.7554/elife.90254)
